# subject-of-test: Metabotropic glutamate receptor 3 (Rattus norvegicus) (UniProt P31422)
# Sequence (P31422 23-879 limits assumed): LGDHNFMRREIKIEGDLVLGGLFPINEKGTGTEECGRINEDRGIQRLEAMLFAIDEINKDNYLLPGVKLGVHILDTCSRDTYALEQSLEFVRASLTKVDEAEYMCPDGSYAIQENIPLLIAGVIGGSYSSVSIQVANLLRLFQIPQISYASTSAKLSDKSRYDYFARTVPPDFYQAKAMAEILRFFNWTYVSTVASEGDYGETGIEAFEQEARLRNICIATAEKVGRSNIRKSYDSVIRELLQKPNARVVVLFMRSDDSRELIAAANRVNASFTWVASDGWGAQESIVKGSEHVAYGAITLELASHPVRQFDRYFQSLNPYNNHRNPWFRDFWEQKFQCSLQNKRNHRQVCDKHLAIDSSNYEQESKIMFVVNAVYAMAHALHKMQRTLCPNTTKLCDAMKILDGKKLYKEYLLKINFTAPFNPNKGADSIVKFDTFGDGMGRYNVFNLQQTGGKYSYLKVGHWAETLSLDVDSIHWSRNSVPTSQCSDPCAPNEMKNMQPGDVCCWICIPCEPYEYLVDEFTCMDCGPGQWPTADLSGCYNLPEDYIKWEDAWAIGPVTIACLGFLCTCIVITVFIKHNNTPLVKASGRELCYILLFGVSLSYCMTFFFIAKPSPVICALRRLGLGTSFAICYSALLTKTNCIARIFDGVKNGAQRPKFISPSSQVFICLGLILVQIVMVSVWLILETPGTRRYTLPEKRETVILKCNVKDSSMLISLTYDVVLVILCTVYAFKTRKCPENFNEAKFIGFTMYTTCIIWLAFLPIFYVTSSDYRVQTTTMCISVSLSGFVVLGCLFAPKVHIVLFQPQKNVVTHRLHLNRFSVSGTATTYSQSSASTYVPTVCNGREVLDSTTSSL
# assay-info: Antagonistic activity against Glutamate receptor in rat spinal cord at concentration of 50 uM.
# Assay type: functional, tissue-based
measured-attribute: Change in amplitude response (%)
Only the number, expressed in %, is required.

Looking up COC(=O)[C@@H](CCSC)NC(=O)[C@H](CC(C)C)NC(=O)[C@@H](Cc1c[nH]c2ccccc12)NC(=O)[C@H](Cc1c[nH]c2ccccc12)NC(=O)[C@@H](Cc1c[nH]c2ccccc12)NC(=O)[C@H](CCC(N)=O)NC(=O)[C@H](CCC(N)=O)NC(=O)[C@@H]1CCCN1C(=O)[C@H](CCCCNC(=O)OCc1ccccc1)NC(=O)[C@@H]1CCCN1C(=O)[C@@H](N)CCCN=C(N)N , I see its Change in amplitude response listed as -18

Looking up COC(=O)[C@H](CCSC)NC(=O)[C@@H](NC(=O)[C@H](NC(=O)[C@H](Cc1ccccc1)NC(=O)[C@H](Cc1ccccc1)NC(=O)[C@H](CCC(N)=O)NC(=O)[C@H](CCC(N)=O)NC(=O)[C@@H]1CCCN1C(=O)[C@H](CCCCNC(=O)OCc1ccccc1)NC(=O)[C@@H]1CCCN1C(=O)[C@H](CCCN=C(N)N)NC(=O)OCc1ccccc1)C(C)C)C(C)C , I see its Change in amplitude response listed as -36

Looking up COC(=O)[C@@H](CCSC)NC(=O)[C@H](CC(C)C)NC(=O)CNC(=O)[C@H](Cc1ccccc1)NC(=O)[C@H](Cc1ccccc1)NC(=O)[C@@H](NC(=O)[C@H](NC(=O)[C@@H]1CCCN1C(=O)[C@H](CCCCNC(=O)OCc1ccccc1)NC(=O)[C@@H]1CCCN1C(=O)[C@H](CCCN=C(N)N)NC(=O)OCc1ccccc1)C(C)C)C(C)C , I see its Change in amplitude response listed as -17

Looking up COC(=O)[C@H](CCSC)NC(=O)[C@@H]1CCCN1C(=O)[C@H]1CCCN1C(=O)[C@H](Cc1ccccc1)NC(=O)[C@H](Cc1ccccc1)NC(=O)[C@H](CCC(N)=O)NC(=O)[C@H](CCC(N)=O)NC(=O)[C@@H]1CCCN1C(=O)[C@@H](CCCCNC(=O)OCc1ccccc1)NC(=O)[C@H]1CCCN1C(=O)[C@@H](CCCN=C(N)N)NC(=O)OCc1ccccc1 , I see its Change in amplitude response listed as 2
